# measured_on: T1, human CD98 ECD (Homo sapiens, UniProt P08195)
# T1 construct: Human CD98 ECD with C-terminal His-tag
# T1 sequence (P08195 with tags, fused parts or gaps): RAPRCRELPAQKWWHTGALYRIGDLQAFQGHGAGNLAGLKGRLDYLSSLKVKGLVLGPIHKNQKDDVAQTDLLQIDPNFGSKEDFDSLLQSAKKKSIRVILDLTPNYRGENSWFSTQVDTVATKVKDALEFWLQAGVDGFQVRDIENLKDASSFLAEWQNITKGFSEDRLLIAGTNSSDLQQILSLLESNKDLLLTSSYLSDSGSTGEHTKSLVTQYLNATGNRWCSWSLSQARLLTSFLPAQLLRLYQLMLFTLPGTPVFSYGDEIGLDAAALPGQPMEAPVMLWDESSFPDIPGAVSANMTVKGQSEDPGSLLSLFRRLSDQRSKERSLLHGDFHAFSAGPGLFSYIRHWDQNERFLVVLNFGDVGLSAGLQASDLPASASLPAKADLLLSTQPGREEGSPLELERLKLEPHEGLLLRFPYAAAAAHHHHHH
# assay_details: Biacore surface plasmon resonance binding kinetics (anti-Fc capture)
# cond: huCD98 ECD
Listed molecules paired with reported kd
Give just the number in s⁻¹; leave the unit off.

Completed entries (count: 2):
molecule: huAb15v6 (antibody, V domains shown) VH: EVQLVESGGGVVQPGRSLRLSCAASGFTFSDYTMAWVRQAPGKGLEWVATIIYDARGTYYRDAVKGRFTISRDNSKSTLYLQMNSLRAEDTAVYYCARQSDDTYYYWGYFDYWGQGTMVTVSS VL: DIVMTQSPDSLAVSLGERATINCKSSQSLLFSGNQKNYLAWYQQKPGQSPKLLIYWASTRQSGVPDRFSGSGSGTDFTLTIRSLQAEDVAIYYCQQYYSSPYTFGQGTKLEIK
kd [s⁻¹]: 0.00026
//
molecule: huAb15v3 (antibody, V domains shown) VH: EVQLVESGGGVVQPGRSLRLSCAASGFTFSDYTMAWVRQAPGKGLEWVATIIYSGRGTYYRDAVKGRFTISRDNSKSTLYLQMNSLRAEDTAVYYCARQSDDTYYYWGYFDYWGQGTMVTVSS VL: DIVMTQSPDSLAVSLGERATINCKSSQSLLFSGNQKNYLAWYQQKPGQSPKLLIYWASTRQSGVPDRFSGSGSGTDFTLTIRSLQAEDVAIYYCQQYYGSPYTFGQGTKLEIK
kd [s⁻¹]: 8.5e-05

Now examine the next entry.
Consider the molecule huAb15v1 (antibody, V domains shown) VH: EVQLVESGGGVVQPGRSLRLSCAASGFTFSDYTMAWVRQAPGKGLEWVATIIYSGRGTYYRDAVKGRFTISRDNSKSTLYLQMNSLRAEDTAVYYCARQSDHTYYYWGYFDYWGQGTMVTVSS VL: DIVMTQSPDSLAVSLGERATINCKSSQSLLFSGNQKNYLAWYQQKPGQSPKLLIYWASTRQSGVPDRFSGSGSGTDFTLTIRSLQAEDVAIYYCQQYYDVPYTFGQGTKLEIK . State its measured kd.
2.3e-05
